Target: DGI-2 (Homo sapiens)
Construct: encompassed the entire DGI-2 open reading frame (ORF); His-tag of vector pIVEX2.3-MCS (inferred from the vector and from the reverse primer lacking a stop codon); made in house; host or cells: cell-free in vitro translation (Rapid Translation System RTS, Roche; E. coli lysate)
Sequence (Q15004 1-111): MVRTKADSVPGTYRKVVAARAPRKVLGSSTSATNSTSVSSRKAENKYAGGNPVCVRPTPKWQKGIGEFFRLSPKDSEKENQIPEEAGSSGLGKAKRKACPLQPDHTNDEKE
Test: ELISA analysis of phage on DGI-2 polypeptide (specific binding)
Details: binding to DGI-2 polypeptide (specific binding); phage ELISA units read at 405 nm
I'd appreciate it if you marked entries condition met when DGI-2 (OD) is lower than 3 OD and condition not met when it is not.

query: A record lists FGSTAYADMLSQFRKFAMNIS (DGI-2-20F-PP-E1; listed as Escherichia coli) . Is its DGI-2 (OD) below 3 OD?
result: condition met

query: Please let me know if GLYQRGLAPRCRGERFGVRN (DGI-2-20F-PP-C2; listed as Escherichia coli) shows DGI-2 (OD) below 3 OD.
result: condition met

query: In plain terms, does SLECWAMPGMVVRLVGCDGP (DGI-2-20R-4-H112; listed as Escherichia coli) come in under 3 OD for DGI-2 (OD)?
result: condition not met

query: Take the sequence RRGVCEIFTGWCVGQTNERP (DGI-2-20R-4-H626; listed as Escherichia coli) and say whether its DGI-2 (OD) is less than 3 OD.
result: condition not met

query: Given the entry GSTRLRVTVRFCSETGTPGC (DGI-2-20F-PP-G6; listed as Escherichia coli) , would its reported DGI-2 (OD) be below 3 OD?
result: condition met

query: Does the reported DGI-2 (OD) of GLYRRAGDASVGFSRWGREDCQVYFSVECLLGSSWGGYS (GLYRRAGDASVGFSRWGRFDCQVYFSVECLLGSSWGGYS; DGI-2-40F-4-F12; listed as Escherichia coli) stay below 3 OD?
result: condition met

Origin of values: patent US7056679B2
